Test: NCI Yeast Anticancer Drug Screen. Data for the sgs1 mgt1 strain (AID 161);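 also: 0% = growth of cultures given vehicle only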
Settings: S. cerevisiae sgs1 mgt1 strain, at 50.0 µM, active compounds read high
The panel holds about 79,000 compounds, 15% with a hit somewhere; the sample as a whole holds those more often.
ASSAY_METRIC: growth inhibition (%)

[[record]]
compound = "CC(=O)OC1C(COC(N)=O)OC(n2c(-c3ccc(C)cc3)cc(-c3ccccc3)c(C#N)c2=O)C(OC(C)=O)C1OC(C)=O (stereo not drawn)"
assay_metric = "growth inhibition"
assay_result = 4.75

[[record]]
compound = "CNC(=O)OCc1c(COC(=O)NC)c(-c2ccccc2)n(-c2ccccc2)c1C"
assay_metric = "growth inhibition"
assay_result = 44.8

[[record]]
compound = "COC(=O)c1ccccc1NC(=NC1CCCCCC1)NS(=O)(=O)c1ccc(C)cc1"
assay_metric = "growth inhibition"
assay_result = -13.8

[[record]]
compound = "COC1OC(COC(c2ccccc2)(c2ccccc2)c2ccccc2)C(OS(=O)(=O)c2ccc(C)cc2)C(OC(=O)c2ccccc2)C1OC(=O)c1ccccc1 (stereo not drawn)"
assay_metric = "growth inhibition"
assay_result = -1.15

[[record]]
compound = "CCOC(=O)COc1ccc(Cl)cc1CCl"
assay_metric = "growth inhibition"
assay_result = -10.4

[[record]]
compound = "Cc1cc2ncn(C3CCCO3)c2cc1C (stereo not drawn)"
assay_metric = "growth inhibition"
assay_result = -14.3

[[record]]
compound = "CC(=O)Nc1ccc(C(=O)CC(c2ccccc2)N2CCOCC2)cc1 (stereo not drawn)"
assay_metric = "growth inhibition"
assay_result = 11.9

[[record]]
compound = "CC(=O)Nc1ccc(-c2nnc(SCC(=O)Nc3ccccc3C)o2)cc1"
assay_metric = "growth inhibition"
assay_result = -19.9

[[record]]
compound = "c1ccc(SCc2ccc3c(c2)OCO3)cc1"
assay_metric = "growth inhibition"
assay_result = 18.2

[[record]]
compound = "O=C1C2=C(OCO2)C(=O)C2=C1OCO2"
assay_metric = "growth inhibition"
assay_result = 21.1

[[record]]
compound = "CCOC(=O)c1ccc(Nc2nc3ccccc3nc2C(=O)OCC)cc1"
assay_metric = "growth inhibition"
assay_result = -4.95

[[record]]
compound = "C[C@@H]1CC[C@@]2(C)C(C(=O)O)=CCCC2[C@@]1(C)CC(=O)c1ccoc1 (stereo partly drawn)"
assay_metric = "growth inhibition"
assay_result = -36.1

[[record]]
compound = "CN(C)CCNC(=O)c1cccc(N(C)C(=O)c2ccccc2)c1[N+](=O)[O-]"
assay_metric = "growth inhibition"
assay_result = 6.5

[[record]]
compound = "O=C(O)c1cc(Cl)ccc1-c1ccc(Cl)cc1C(=O)Nc1ccc2c(c1)Cc1ccccc1-2"
assay_metric = "growth inhibition"
assay_result = 94.6

[[record]]
compound = "COC(=O)C(C#N)=C(C)C"
assay_metric = "growth inhibition"
assay_result = 16.9

[[record]]
compound = "N#CNc1c2ccccc2nc2ccccc12"
assay_metric = "growth inhibition"
assay_result = -16.6

[[record]]
compound = "NSC(=S)NCc1ccco1"
assay_metric = "growth inhibition"
assay_result = 7.75

[[record]]
compound = "CC/C=N/NC(=O)OCC"
assay_metric = "growth inhibition"
assay_result = -13.9

[[record]]
compound = "CC(C)C1OCCOCCO1"
assay_metric = "growth inhibition"
assay_result = -18.5

[[record]]
compound = "Oc1ccccc1CNCCNCc1ccccc1O"
assay_metric = "growth inhibition"
assay_result = 1.6

[[record]]
compound = "COC1=C(OC)C(=O)C(C(=O)CCCCC(=O)O)=C(C)C1=O"
assay_metric = "growth inhibition"
assay_result = 8.5

[[record]]
compound = "Cc1cc(O)c(C(c2ccc(C#N)cc2)c2c(O)cc(C)[nH]c2=O)c(=O)[nH]1"
assay_metric = "growth inhibition"
assay_result = 1.95

[[record]]
compound = "CC(=O)NS(=O)(=O)c1ccc(NC(=O)CCC(=O)O)cc1"
assay_metric = "growth inhibition"
assay_result = 2.4


Every entry's value here was drawn from PubChem BioAssay (NCI).
